# assay_info: NCI Yeast Anticancer Drug Screen. Data for the mlh1 rad18 strain (AID 175)
# condition_label: S. cerevisiae mlh1 rad18 strain growth inhibition; at 50.0 µM (retest, dose inferred, filed as 5.0); stronger effect = higher value
About 79,000 compounds went through this panel and 15% of them were active in at least one assay; those are over-represented in the sample as a whole.
# label = Met if growth inhibition >= 60% else Not met

API: above_or_equal(metric=growth inhibition, cutoff=60%) for item O=[N+]([O-])/C(Cl)=C(\Sc1ccccc1)C(Cl)=C(Cl)Cl
Met

Please check the record COc1cccc2c1C(=O)c1c(O)c3c(c(O)c1C2=O)CC(O)(C(=O)CO)CC3OC1CC(N)C(I)C(C)O1 (stereo not given) and state if its growth inhibition is at or above 60%.
Met

Does the molecule COc1cc2c(cc1OC)C(C)N(C)c1c-2c(OC(C)=O)cc2cc(OC)c(OC)cc12 (stereo not given) have recorded growth inhibition that is 60% or more?
Not met

Given the entry COc1cc(/C=C2\CCc3ccccc3C2=O)ccc1O , answer whether its growth inhibition meets or surpasses 60%.
Met

Tell me whether growth inhibition is at least 60% here: C=CCc1cc(Cl)ccc1O
Not met

###

# assay_info: NCI Yeast Anticancer Drug Screen. Data for the rad50 strain (AID 155);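 note: 0% = growth of vehicle-only cultures of the same strain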
# condition_label: S. cerevisiae rad50 strain growth inhibition; at 50.0 µM (retest, dose inferred, filed as 5.0)
About 79,000 compounds went through this panel and 15% of them were active in at least one assay; those are over-represented in the sample as a whole. The source made the active and inactive calls. Rule as the data show it: active = growth inhibition above about 70%; inactive = the rest.
Answer with one of the outcomes given here: 1 = active, 0 = inactive

COC(=O)Cc1cn[nH]c1C(=O)OC ... 0
OC(c1cc(-c2ccccc2)nc2cc(Cl)ccc12)C1CCCCN1 (configuration not stated) ... 0
COc1ccc2c(c1)C(Br)CCC(Br)C2=O (configuration not stated) ... 0
c1cc(CCSSCCc2ccncc2)ccn1 ... 1
CCCCCCCCCC1OCC(C)O1 (configuration not stated) ... 0

Just curious, what result did N=C(N)SCc1ccc(Br)cc1 get here?
0

Could you kindly confirm the outcome this assay logged for CC(=O)OC1=CC(n2cc(F)c(=O)[nH]c2=O)OC(C)C1=O (configuration not stated) ?
0

###

# assay_info: NCI Yeast Anticancer Drug Screen. Data for the bub3 strain (AID 167)
# condition_label: S. cerevisiae bub3 mutant strain, at 50.0 µM
Compounds without any hit were thinned out: in the full panel of roughly 79,000, 15% have a hit. Activity calls are given as the source filed them. Cut-off read from the data, not from the text of the source: active = growth inhibition above about 70%; inactive = the rest.
Write down the outcome that applies. Available outcomes: 1 (yes) for active, 0 (no) for inactive

Please share the test call associated with CCCCCCCCCCCCCC/C(=C/OCC[N+](C)(C)C)OC(C)=O (tested in a mixture with another compound) .
1 (yes)

Outcome logged for COc1cccc(C2c3cc4c(cc3OC(O)C2C)OCO4)c1O (stereo unspecified) in this assay:
0 (no)

###

# assay_info: NCI Yeast Anticancer Drug Screen. Data for the bub3 strain (AID 167)
# condition_label: S. cerevisiae bub3 mutant strain, at 5.0 µM (retest, dose inferred, filed as 0.5), stronger effect = higher value
About 79,000 compounds went through this panel and 15% of them were active in at least one assay; those are over-represented in the sample as a whole. The source made the active and inactive calls. Rule as the data show it: active = growth inhibition above about 70%; inactive = the rest.
Readings of growth inhibition for the listed compounds

As a guide, the following entries are already answered.
O=c1c2ccccc2sc2cccc(NCCCN3CCN(CCCNc4cccc5sc6ccccc6c(=O)c45)CC3)c12 ... -2% (inactive)
CN(C)c1ccc(/C=C/c2ccnc3ccccc23)c(O)c1 ... -4% (inactive)
CC(=O)C1CCCCC1/C=C/[N+](=O)[O-] (centres undefined) ... 30% (inactive)

Lab note: measured growth inhibition of CCCCCCCCCCCc1nnc(N)o1 was -10% (inactive)

The reported value for CC(=O)N(C1=CC(=O)c2ccccc2C1=O)c1ccc(C)cc1 in terms of growth inhibition is 37% (inactive)

The reported value for COC(=O)C1(OC(=O)CCC(=O)O)C(=O)NC2=C1C(=O)c1ccccc1C2=O (centres undefined) in terms of growth inhibition is -42% (inactive)

Measured growth inhibition, COc1ccc2c(c1)CCCN2CCCCCCCN1CCCCC1 : 34% (inactive)

Looking up O=C(Oc1c([N+](=O)[O-])cc(-c2ccc([N+](=O)[O-])cc2)cc1[N+](=O)[O-])c1ccccc1 , I see its growth inhibition listed as 49% (inactive)

Sample CCCC(=O)c1cc(O)c(O)c(CN(C)Cc2cc(Cl)cc(C)c2O)c1O ; growth inhibition observed: -7% (inactive)

Memo: O=C(CC(=O)c1cccnc1)c1cccnc1 , reported growth inhibition: 8% (inactive)

Noted for CC1CCC(SC2CC(=O)CCC2=O)CC1 (centres undefined) : its growth inhibition reads 24% (inactive)

Documented growth inhibition of CCN(CC)CCSCCCNc1cc(C)nc2c1ccc1c2ccc2c(NCCCSCCN(CC)CC)cc(C)nc21 : 4% (inactive)

Just for reference, PubChem BioAssay (NCI) is where these values come from.
